- testTarget: G protein-activated inward rectifier potassium channel 2 (Homo sapiens) + G protein-activated inward rectifier potassium channel 1 (Homo sapiens) (UniProt P48051+P48549)
- Sequence (P48051 whole entry, looked up): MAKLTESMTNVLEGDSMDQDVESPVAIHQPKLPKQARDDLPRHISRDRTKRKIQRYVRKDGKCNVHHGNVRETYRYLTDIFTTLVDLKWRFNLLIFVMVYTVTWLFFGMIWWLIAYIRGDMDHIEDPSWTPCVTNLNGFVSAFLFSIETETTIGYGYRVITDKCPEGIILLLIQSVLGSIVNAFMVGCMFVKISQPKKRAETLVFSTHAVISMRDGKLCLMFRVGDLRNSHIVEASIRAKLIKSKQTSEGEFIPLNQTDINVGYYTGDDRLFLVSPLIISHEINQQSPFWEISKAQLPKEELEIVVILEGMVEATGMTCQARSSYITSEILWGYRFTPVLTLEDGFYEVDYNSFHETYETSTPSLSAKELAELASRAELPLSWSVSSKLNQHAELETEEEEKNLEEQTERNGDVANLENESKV
- Sequence (P48549 whole entry, looked up): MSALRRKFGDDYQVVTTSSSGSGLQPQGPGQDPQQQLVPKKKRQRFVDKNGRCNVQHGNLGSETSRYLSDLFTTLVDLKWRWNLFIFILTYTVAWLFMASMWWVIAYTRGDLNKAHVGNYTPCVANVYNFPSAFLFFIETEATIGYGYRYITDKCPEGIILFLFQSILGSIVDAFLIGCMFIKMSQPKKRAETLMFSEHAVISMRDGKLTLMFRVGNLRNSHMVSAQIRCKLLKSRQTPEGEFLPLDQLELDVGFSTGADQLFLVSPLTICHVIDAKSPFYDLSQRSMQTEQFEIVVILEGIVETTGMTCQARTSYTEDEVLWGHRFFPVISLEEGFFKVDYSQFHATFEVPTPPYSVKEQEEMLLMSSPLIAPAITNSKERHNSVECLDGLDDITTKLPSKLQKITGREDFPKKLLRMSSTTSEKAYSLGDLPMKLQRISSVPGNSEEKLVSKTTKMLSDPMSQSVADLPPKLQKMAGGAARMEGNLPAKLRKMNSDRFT
- assaySummary: GIRK1/2 thallium flux modulators, retest, confirmation, cell-based, HEK293 rmGlu8/hGIRK1/2, FluoZin-2 (AID 623911)
- conditionInfo: HEK293 rmGlu8/hGIRK1/2, thallium flux FluoZin-2; actives lie on both sides; glutamate co-added at its EC20 level
Out of some 2,100 compounds screened, about 770 (37%) were called active. The list shows a part of the results.
In this section we review reported manual score values for a set of compounds.

O=c1c(-c2ccccc2)nc(-c2ccccc2)cn1O    1 (active)
CCN1CCCC1CNC(=O)C1CCN(Cc2nc(-c3cccc(Br)c3)oc2C)CC1 (centres undefined)    -1 (active)
CC(=O)c1c(C)[nH]c(C(=O)COc2cc(C)cc(C)c2)c1C    0 (inactive)
S=c1[nH]nc(-c2cc3c(s2)-c2ccccc2CC3)o1    1 (active)
Cc1ccccc1-n1nnc2c(=O)oc3ccccc3c21    0 (inactive)

Exercise: What value of manual score has been recorded for this entry: O=C(N/C(=N\O)c1ccccc1)Nc1ccc(Cl)cc1
Solution: 0 (inactive)

Exercise: Follow-up entry: CC1CCN(c2ccc(/C=N/n3nnnc3N)cc2[N+](=O)[O-])CC1
Solution: 0 (inactive)

Exercise: Follow-up entry: CC(CCc1ccccc1)NC(=O)N1CCOCC1 (centres undefined)
Solution: 0 (inactive)

* * *

- testTarget: G protein-activated inward rectifier potassium channel 2 (Homo sapiens) + G protein-activated inward rectifier potassium channel 1 (Homo sapiens) (UniProt P48051+P48549)
- assaySummary: GIRK1/2 thallium flux modulators, retest, confirmation, cell-based, HEK293 rmGlu8/hGIRK1/2, FluoZin-2 (AID 623911)
- conditionInfo: HEK293 rmGlu8/hGIRK1/2, thallium flux FluoZin-2; actives lie on both sides; glutamate co-added at its EC20 level
About 770 (37%) of roughly 2,100 compounds were called active.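 How the source made its calls: active means by-eye trace score of 1 for enhancers or -1 for inhibitors, so actives lie on both sides (some results past the limit were not filed as active); inactive means score 0, or 3 fluorescent, or 4 baseline rise.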 Some of the results follow.
Answer with one of the outcomes active, inactive

Look over these answered cases.
CC1CCCC(NC(=S)NC(=O)c2cncc(Br)c2)C1C (stereo not given)    active
O=C(Nc1ccc(Cl)cc1)NC1CCCCC1Cc1ccco1 (stereo not given)    active
Cc1cc(C)c(NC(=O)/C(=C/c2ccco2)c2ccccc2)c(C)c1    inactive

Exercise: Please indicate how the test categorized CCCC1=C(C(=O)OCC)C(c2ccc(F)cc2)n2ncnc2N1 (stereo not given) .
Solution: inactive

Exercise: Follow-up entry: Cc1ccccc1C(=O)Nc1ccccc1C(=O)N/N=C\c1ccco1
Solution: active

* * *

- testTarget: G protein-activated inward rectifier potassium channel 2 (Homo sapiens) + G protein-activated inward rectifier potassium channel 1 (Homo sapiens) (UniProt P48051+P48549)
- assaySummary: GIRK1/2 thallium flux modulators, retest, confirmation, cell-based, HEK293 rmGlu8/hGIRK1/2, FluoZin-2 (AID 623911)
- conditionInfo: HEK293 rmGlu8/hGIRK1/2, thallium flux FluoZin-2; actives lie on both sides; glutamate co-added at its EC20 level
Screen size: about 2,100 compounds; about 770 (37%) were called active.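 Rule for the calls: active = by-eye trace score of 1 for enhancers or -1 for inhibitors, so actives lie on both sides (some results past the limit were not filed as active); inactive = score 0, or 3 fluorescent, or 4 baseline rise.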 This is one part of the list.
Answer with one of the outcomes Y for active, N for inactive

CNC(=S)N=Nc1c(O)[nH]c2ccc(C(C)C)cc12    N
c1ccc2c(NC3CCCC3)nnc(NC3CCCC3)c2c1    Y
CCCC(c1c(C)n(C)n(-c2ccccc2)c1=O)c1c(C)n(C)n(-c2ccccc2)c1=O    N
O=C(Nc1ccc(O)c(-c2nc3ccccc3s2)c1)C1=COCCO1    N
O=C1OCCC1Sc1nc2cc(Cl)ccc2n1Cc1ccccc1 (stereo unspecified)    N

Exercise: Please indicate how the test categorized Cc1ccc(-c2c(C)sc(NC(=O)C3C4CCC(O4)C3C(=O)O)c2C(=O)OC(C)C)cc1 (stereo unspecified) .
Solution: N
